biological target: SARS-CoV-2 spike protein, wild type (Wuhan) (SARS-CoV-2, UniProt P0DTC2 14-1273); experiment: cell-based or functional assay
Please provide measured VSV-SARS-CoV-2 IC50 for the entries that follow.

Looking up vS07_29B10 (designed binder, also called R3b) MRGSHHHHHHGSDLGKKLLQAARAGQLDEVRELLKAGADVNAKDREGITPLHLAAQHGHLEIVEVLLKAGADVNAKDVWGRTPLHLAAWQGHLEIVEVLLKAGADVNAKDLAGATPLHVAALYGHLEIVEVLLKAGADVNAQDKSGKTPADLAARAGHQDIAEVLQKAA , I found its VSV-SARS-CoV-2 IC50 recorded as < 2 nM

Looking up vS07_23E04 (designed binder, also called R3c) MRGSHHHHHHGSDLGKKLLQAARAGQLDEVRELLKAGADVNAKDQEGITPLHVAAHQGHLEIVEVLLKAGADVNAKDVWGRTPLHLAAWRGHLEIVEVLLKAGADVNAKDHAGATPLHAAALSGHLEIVEVLLKAGADVNAQDKSGKTPADLAARAGHQDIAEVLQKAA , I found its VSV-SARS-CoV-2 IC50 recorded as < 2 nM

Looking up vS07_14G03 (designed binder, also called S2a) MRGSHHHHHHGSDLGQKLLHAAQYGQDDEVRILLAAGADVNAKDKQGNTPLHIAAFHGHLEIVEVLLKAGADVNAKDQWGLTPLHLAAAWGHLEIVEVLLKAGADVNAQDNYGQTPADLAAESGHEDIAEVLQKAA , I found its VSV-SARS-CoV-2 IC50 recorded as < 100 nM

Looking up vS07_12C06 (designed binder, also called R1b; Rb1) MRGSHHHHHHGSDLGKKLLQAARAGQLDEVRELLKAGADVNAKDREGKTPLHVAAQEGHLEIVEVLLKAGADVNAKDVWGRTPLHLAAWIGHLEIVEVLLKAGADVNAKDVSGATPLHAAALHGHLEIVEVLLNAGADVNAQDKSGKTPADLAARAGHQDIAEVLQKAA , I found its VSV-SARS-CoV-2 IC50 recorded as < 2 nM
